Where do the numbers come from? From ChEMBL document CHEMBL1136426.

Measured Max hypotension of individual entries
tested on: Canis familiaris; assay: Maximum […] was measured in anesthetized dog as percent at the dose of 0.01 mg/kg, i.v.; format: functional, Canis lupus familiaris; details: route intravenous
Please respond with the number in % and leave the unit unwritten.

Answered examples (4):
# compound, property measured, unit tag, readout value
rows = [
    ("CC(=O)N[C@@H](CSC(=O)c1cccnc1)C(=O)NCCO[N+](=O)[O-]", "Max hypotension", "%", -24),
    ("CC(=O)N[C@@H](CSC(=O)OCC(C)C)C(=O)NCCO[N+](=O)[O-]", "Max hypotension", "%", -12),
    ("CC(=O)N[C@@H](CSC(=O)OC(C)(C)C)C(=O)NCCO[N+](=O)[O-]", "Max hypotension", "%", -8),
    ("O=C1NC(C(=O)NCCO[N+](=O)[O-])C(c2cccc3ccccc23)S1 (stereo not drawn)", "Max hypotension", "%", -2),
]

Qu. Assign Max hypotension to the following record: CCOC(=O)SC[C@H](NC(C)=O)C(=O)NCCO[N+](=O)[O-]
Ans. -18

Qu. Assign Max hypotension to the following record: CC(=O)N[C@@H](CS)C(=O)NCCO[N+](=O)[O-]
Ans. -52

Qu. Assign Max hypotension to the following record: O=C1NC(C(=O)NCCO[N+](=O)[O-])C(c2cccnc2)S1 (stereo not drawn)
Ans. -4

Qu. Assign Max hypotension to the following record: CC(=O)N[C@@H](CSC(=O)c1ccccc1)C(=O)NCCO[N+](=O)[O-]
Ans. -28

Qu. Assign Max hypotension to the following record: O=C1NC(C(=O)NCCO[N+](=O)[O-])C(Cc2ccccc2)S1 (stereo not drawn)
Ans. -3

Qu. Assign Max hypotension to the following record: O=C1N[C@H](C(=O)NCCCCO[N+](=O)[O-])CS1
Ans. 0

Qu. Assign Max hypotension to the following record: O=C1N[C@H](C(=O)NCCO[N+](=O)[O-])CS1
Ans. -8

Qu. Assign Max hypotension to the following record: CC(CNC(=O)[C@@H]1CSC(=O)N1)O[N+](=O)[O-] (stereo partly drawn)
Ans. 0

Qu. Assign Max hypotension to the following record: O=C1NC(C(=O)NCCO[N+](=O)[O-])C(c2cccs2)S1 (stereo not drawn)
Ans. 0

Qu. Assign Max hypotension to the following record: CC(=O)N[C@@H](CSC(=O)C(C)(C)C)C(=O)NCCO[N+](=O)[O-]
Ans. -23

Qu. Assign Max hypotension to the following record: CC(C)C(=O)N[C@@H](CSC(=O)C(C)C)C(=O)NCCO[N+](=O)[O-]
Ans. -14

Qu. Assign Max hypotension to the following record: CC(=O)N[C@@H](CSC(C)=O)C(=O)NCCO[N+](=O)[O-]
Ans. -44

Qu. Assign Max hypotension to the following record: C[C@@H]1SC(=O)N[C@@H]1C(=O)NCCO[N+](=O)[O-]
Ans. -2

Qu. Assign Max hypotension to the following record: O=C(N[C@@H](CS)C(=O)NCCO[N+](=O)[O-])c1cccnc1
Ans. -3
